- tested_on: human GSK-3β (Homo sapiens (Human))
- Sequence (P49841 whole entry): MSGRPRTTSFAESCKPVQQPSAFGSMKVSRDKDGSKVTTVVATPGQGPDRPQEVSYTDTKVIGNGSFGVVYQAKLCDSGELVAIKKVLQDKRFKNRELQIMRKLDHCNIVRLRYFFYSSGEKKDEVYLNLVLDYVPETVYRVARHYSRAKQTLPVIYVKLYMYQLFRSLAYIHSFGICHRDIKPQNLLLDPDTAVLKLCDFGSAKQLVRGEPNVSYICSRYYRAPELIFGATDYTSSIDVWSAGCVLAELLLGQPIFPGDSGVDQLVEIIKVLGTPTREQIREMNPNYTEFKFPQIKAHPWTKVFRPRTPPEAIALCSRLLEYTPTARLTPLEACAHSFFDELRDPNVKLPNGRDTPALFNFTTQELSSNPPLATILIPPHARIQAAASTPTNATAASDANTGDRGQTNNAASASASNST
- assay: GSK-3β LanthaScreen TR-FRET Eu Kinase binding and displacement assay
- protocol_conditions: compounds 16 to 41, LanthaScreen TR-FRET binding and displacement assay, five concentrations 100 μM to 10 nM
recorded_metric: IC50 (µM)

* CCOc1cc(F)c(F)cc1-c1ccc2[nH]nc(C(=O)NCC3CCN(CCOC)CC3)c2c1 | 1.06

A = O=C(O)CN1CCC(CNC(=O)c2n[nH]c3ccc(-c4cccc(Cl)c4Cl)cc23)CC1 [Compound 27, hydrate]
B = CCCC(=O)NCCCN1CCC(CNC(=O)c2n[nH]c3ccc(OC)cc23)CC1
C = CC(C)c1ccc2[nH]nc(C(=O)NCC3CCN(CC(=O)O)CC3)c2c1
Data request: # desc sort on IC50 across 3 molecules As an answer, provide the labels arranged in the order called for.
Data returned: C, B, A
(C: 3.91 µM, B: 0.97 µM, A: 0.1 µM)
